- Tested on: CCRF-CEM leukemia
- experimental protocol: NCI-60 one-dose screen, 48 h (100 = growth as untreated, 0 = no growth, -100 = all killed)
- protocol conditions: 10 µM unless noted
The panel holds about 83,000 compounds, 20% with a hit somewhere; the sample as a whole holds those more often.
Param label: returns 1 when growth < 40%, returns 0 otherwise, including exact equality.

Example entries begin here.
compound: O=S(=O)(NCCCNc1nccc(-c2c(-c3cccc(O)c3)nc3occn23)n1)c1ccc(Br)cc1
assigned label: 0

compound: CC(C)Cc1ccc(C(C)C(=O)NCc2c[nH]c3ccc(Cl)cc23)cc1 (configuration not stated)
assigned label: 0

compound: O=C1c2ccccc2-c2c1c1c(NCCCO)nc3ccccc3c1n2Cc1ccccc1
assigned label: 1

compound: CCCOc1nc(SCCC)nc2c1cnn2-c1ccccc1
assigned label: 0

compound: COc1ccc(C(=O)c2cc3c(N)c(C(=O)Nc4cccc5ccccc45)sc3nc2C)cc1
assigned label: 1

Q) Threshold test, growth < 40%: O=C(NCCN1CCOCC1)OCc1nc2nc(Cl)nc(N3CCOCC3)c2[nH]1
A) 1

Q) Threshold test, growth < 40%: O=C(N/N=C/c1cccc(O)c1)c1ccccc1Nc1cccc(C(F)(F)F)c1
A) 1

Q) Threshold test, growth < 40%: CCCCCCCCCCCCCCCC(=O)OC[C@@]1(O)C[C@@]23CC[C@@H]4C(C)(C)[C@H](O)CC[C@@]4(C)[C@@H]2CC[C@H]1C3
A) 0

Q) Threshold test, growth < 40%: CCNNC(=O)[C@@H]1[C@H](c2cc(OC)c(OC)c(OC)c2)c2cc3c(cc2[C@H](O)[C@H]1CO)OCO3
A) 1

Q) Threshold test, growth < 40%: CC1=CC[C@@H]2CC[C@]3(C)[C@H](CC[C@@H]4[C@@]5(C)CCCNC(C)(C)[C@@H]5CC[C@]43C)[C@H]2[C@@H]1C
A) 1

Q) Threshold test, growth < 40%: N#CSCC1CC(O)(c2ccccc2)C(c2ccccc2)C(c2ccc(F)cc2)O1 (configuration not stated)
A) 1
